test system: SYO-1 complex spheroid growth, percent test/control; experiment: Anticancer human tumor SYO-1 cell line growth inhibition [Asc]; conditions: second compound 0.316 µM; first compound 0.01 µM; active compounds read low;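 further: compound exposure lasted 7 days after spheroids grew 3 days; 100% = DMSO vehicle control viability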
Below, each entry is listed with its recorded viability, T/C.
MEASURED_ATTRIBUTE: viability, T/C (%)

1) CNC(C)C(=O)NC1CN(S(=O)(=O)c2cccc(S(=O)(=O)N3CCC4CCC(C(=O)NC(c5ccccc5)c5ccccc5)N4C(=O)C(NC(=O)C(C)NC)C3)c2)CCC2CCC(C(=O)NC(c3ccccc3)c3ccccc3)N2C1=O (stereo not drawn) + Cc1c(S(C)(=O)=O)c(-c2cc(F)cc(N3CCN(c4ccc(NS(=O)(=O)c5ccc(NC(CCN6CCC(C(=O)OCCCP(=O)(O)O)CC6)CSc6ccccc6)c(S(=O)(=O)C(F)(F)F)c5)cc4)CC3)c2)c(-c2ccc(Cl)cc2)n1C(C)C; 91.8
2) Cn1ncnc1[C@H]1c2n[nH]c(=O)c3cc(F)cc(c23)N[C@@H]1c1ccc(F)cc1 + Cc1c(S(C)(=O)=O)c(-c2cc(F)cc(N3CCN(c4ccc(NS(=O)(=O)c5ccc(NC(CCN6CCC(C(=O)OCCCP(=O)(O)O)CC6)CSc6ccccc6)c(S(=O)(=O)C(F)(F)F)c5)cc4)CC3)c2)c(-c2ccc(Cl)cc2)n1C(C)C; 73.6
3) CCN1CCN(Cc2ccc(Nc3ncc(F)c(-c4cc(F)c5nc(C)n(C(C)C)c5c4)n3)nc2)CC1 + CNC(C)C(=O)NC1CN(S(=O)(=O)c2cccc(S(=O)(=O)N3CCC4CCC(C(=O)NC(c5ccccc5)c5ccccc5)N4C(=O)C(NC(=O)C(C)NC)C3)c2)CCC2CCC(C(=O)NC(c3ccccc3)c3ccccc3)N2C1=O; 103

###

test system: SYO-1 complex spheroid growth, percent test/control; experiment: Anticancer human tumor SYO-1 cell line growth inhibition [Asc]; settings: second compound 0.03 µM; first compound 0.0316 µM; active compounds read low;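 further: compound exposure lasted 7 days after spheroids grew 3 days; 100% = DMSO vehicle control viability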
Listed compounds paired with reported viability, T/C
MEASURED_ATTRIBUTE: viability, T/C (%)

1. O=C(c1cc(Cc2n[nH]c(=O)c3ccccc23)ccc1F)N1CCN(C(=O)C2CC2)CC1 + CCN1C(C(=O)NC23CCC(C(=O)O)(CC2)CC3)C(c2cccc(Cl)c2F)C2(C(=O)Nc3cc(Cl)ccc32)C12CCCCC2; 102
2. O=C(c1ccc(F)c(F)c1Nc1ccc(I)cc1F)N1CC(O)([C@@H]2CCCCN2)C1 + CCN1C(C(=O)NC23CCC(C(=O)O)(CC2)CC3)C(c2cccc(Cl)c2F)C2(C(=O)Nc3cc(Cl)ccc32)C12CCCCC2; 102
3. COc1c(OCCCN2CCOCC2)ccc2c3n(c(=NC(=O)c4cnc(N)nc4)nc12)CCN3 + CCN1C(C(=O)NC23CCC(C(=O)O)(CC2)CC3)C(c2cccc(Cl)c2F)C2(C(=O)Nc3cc(Cl)ccc32)C12CCCCC2; 96.9

###

test system: SYO-1 complex spheroid growth, percent test/control; test: Anticancer human tumor SYO-1 cell line growth inhibition [Asc]; conditions: second compound 0.1 µM; first compound 3.16 µM; active compounds read low;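 further: compound exposure lasted 7 days after spheroids grew 3 days; 100% = DMSO vehicle control viability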
MEASURED_ATTRIBUTE: viability, T/C (%)

1) C=C(F)C(=O)N1CCN(c2nc(OCC3CCCN3C)nc3c2CCN(c2cccc4cccc(Cl)c24)C3)CC1CC#N (stereo not drawn) + CNC(C)C(=O)NC1CN(S(=O)(=O)c2cccc(S(=O)(=O)N3CCC4CCC(C(=O)NC(c5ccccc5)c5ccccc5)N4C(=O)C(NC(=O)C(C)NC)C3)c2)CCC2CCC(C(=O)NC(c3ccccc3)c3ccccc3)N2C1=O; 98.6
2) C#Cc1c(F)ccc2cc(O)cc(-c3ncc4c(N5CC6CCC(C5)N6)nc(OCC56CCCN5CC(F)C6)nc4c3F)c12 (stereo not drawn) + Cc1c(S(C)(=O)=O)c(-c2cc(F)cc(N3CCN(c4ccc(NS(=O)(=O)c5ccc(NC(CCN6CCC(C(=O)OCCCP(=O)(O)O)CC6)CSc6ccccc6)c(S(=O)(=O)C(F)(F)F)c5)cc4)CC3)c2)c(-c2ccc(Cl)cc2)n1C(C)C; 101
3) O=C(c1cc(Cc2n[nH]c(=O)c3ccccc23)ccc1F)N1CCN(C(=O)C2CC2)CC1 + CNC(C)C(=O)NC1CN(S(=O)(=O)c2cccc(S(=O)(=O)N3CCC4CCC(C(=O)NC(c5ccccc5)c5ccccc5)N4C(=O)C(NC(=O)C(C)NC)C3)c2)CCC2CCC(C(=O)NC(c3ccccc3)c3ccccc3)N2C1=O; 66.3
